The origin of these recorded values is patent US20150329642A1.

Readings of EC50 for the listed binders
target: T1, human c-Met, membrane-bound on cells (human, UniProt P08581 25-1390); assay: flow cytometry on A431 cells (PE goat anti-human IgG); second panel
T1 construct: whole, on cells; A431 cells carry on average 30,000 copies of c-Met per cell (Qifi); also called c-Met expressed on A431 cells; c-Met on A549 cells
T1 sequence (P08581 25-1390): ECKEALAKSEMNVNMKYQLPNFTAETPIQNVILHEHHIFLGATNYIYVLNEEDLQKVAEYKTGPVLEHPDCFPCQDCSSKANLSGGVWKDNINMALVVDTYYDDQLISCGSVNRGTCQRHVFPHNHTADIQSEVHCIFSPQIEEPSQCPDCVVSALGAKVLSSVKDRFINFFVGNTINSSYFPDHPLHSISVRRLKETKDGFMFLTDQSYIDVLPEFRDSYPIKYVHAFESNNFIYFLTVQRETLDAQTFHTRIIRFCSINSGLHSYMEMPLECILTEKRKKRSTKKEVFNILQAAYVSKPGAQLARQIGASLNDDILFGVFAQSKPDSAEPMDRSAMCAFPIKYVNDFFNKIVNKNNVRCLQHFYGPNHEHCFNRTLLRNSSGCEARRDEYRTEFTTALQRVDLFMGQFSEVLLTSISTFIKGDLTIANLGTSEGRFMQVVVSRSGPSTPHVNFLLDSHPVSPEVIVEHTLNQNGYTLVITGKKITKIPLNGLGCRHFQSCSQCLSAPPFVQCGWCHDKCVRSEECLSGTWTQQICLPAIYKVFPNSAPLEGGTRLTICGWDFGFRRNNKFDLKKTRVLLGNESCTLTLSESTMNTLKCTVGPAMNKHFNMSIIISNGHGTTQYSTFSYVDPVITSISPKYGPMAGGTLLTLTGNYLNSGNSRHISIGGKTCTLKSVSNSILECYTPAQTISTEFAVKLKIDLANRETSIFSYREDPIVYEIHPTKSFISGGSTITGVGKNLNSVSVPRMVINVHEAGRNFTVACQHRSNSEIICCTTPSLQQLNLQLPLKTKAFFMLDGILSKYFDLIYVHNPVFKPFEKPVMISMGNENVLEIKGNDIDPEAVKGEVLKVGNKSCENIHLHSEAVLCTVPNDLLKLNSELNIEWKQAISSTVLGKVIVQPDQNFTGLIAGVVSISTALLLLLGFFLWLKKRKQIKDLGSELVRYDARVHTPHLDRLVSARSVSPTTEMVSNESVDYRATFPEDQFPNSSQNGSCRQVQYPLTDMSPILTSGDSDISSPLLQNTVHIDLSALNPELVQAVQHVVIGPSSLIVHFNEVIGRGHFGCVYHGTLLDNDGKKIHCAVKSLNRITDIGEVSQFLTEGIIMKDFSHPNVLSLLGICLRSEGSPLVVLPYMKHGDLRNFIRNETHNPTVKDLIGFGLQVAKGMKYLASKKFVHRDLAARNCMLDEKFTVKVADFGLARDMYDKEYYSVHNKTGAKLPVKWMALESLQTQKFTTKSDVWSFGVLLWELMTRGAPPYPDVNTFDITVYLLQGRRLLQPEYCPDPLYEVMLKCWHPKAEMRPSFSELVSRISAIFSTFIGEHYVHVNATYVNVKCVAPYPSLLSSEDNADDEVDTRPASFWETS
Readout type: EC50 (nM)

Binder: UniBody molecule of antibody 008 (other) VH: EVQLVQSGAEVKKPGESLKISCKGSGYSFTSYWIGWVRQMPGKGLEWMGIIYPGDSETRYSPSFQGQVTISADKSISTAYLQWSSLKASDTAMYYCARQEITGEFDYWGQGTLVTVSS VL: AIQLTQSPSSLSASVGDRVTITCRASQGISSALAWYQQKPGKAPKLLIYDASSLESGVPSRFSGSGSGTDFTLTISSLQPEDFATYYCQQFNSYPRTFGQGTKVEIK
Unit name: nM
Data value: 1.85
//
Binder: anti-c-Met HuMab 006 (IgG1) (antibody, V domains shown, also called TH1016-006; PC1016-006) VH: QVQLVQSGAEVKKPGSSVKVSCKASGGTFSSFGIGWVRQAPGQGLEWMGRIFPILGTANYAQMFQGRVTITADKSTSTAYMELTSLRSEDTAVYYCARDVGYDSADAFDIWGQGTMVTVSS VL: DIQMTQSPSSLSASVGDRVTITCRASQGISSWLAWYQQKPEKAPKSLIYAASSLQSGVPSRFSGSGSGTDFTLTISSLQPEDFATYYCQQYNSYPPTFGQGTKVEIK
Unit name: nM
Data value: 1.92
//
Binder: Uni-1016-006 (other, also called UniBody molecule of antibody 006) VH: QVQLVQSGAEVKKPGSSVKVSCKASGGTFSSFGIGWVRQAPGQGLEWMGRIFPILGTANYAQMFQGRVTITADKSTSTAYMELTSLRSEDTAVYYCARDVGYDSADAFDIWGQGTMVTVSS VL: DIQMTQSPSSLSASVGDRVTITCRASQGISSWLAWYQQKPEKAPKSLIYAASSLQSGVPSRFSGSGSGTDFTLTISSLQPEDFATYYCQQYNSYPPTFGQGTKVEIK
Unit name: nM
Data value: 13.9
//
Binder: Uni-1016-005 (other, also called UniBody molecule of antibody 005) VH: QVQLVQSGAEVKKPGSSVKVSCKASGGTFSSYGFGWVRQAPGQGLEWMGRISPILGIANYAQMFQGRVTITADKSTSTAYMELSSLRSEDTAVYYCARDVGYDWPDTFDIWGQGTMVIVSS VL: DIQMTQSPSSLSASVGDRVTITCRASQGISSWLAWYQQKPEKAPKSLIYAASSLQSGVPSRFSGGGSGTDFTLTISSLQPEDFATYYCQQYNSFPPTFGQGTKVEIK
Unit name: nM
Data value: 5.8
//
Binder: anti-c-Met HuMab 008 (IgG1) (antibody, V domains shown, also called TH1016-008; PC1016-008) VH: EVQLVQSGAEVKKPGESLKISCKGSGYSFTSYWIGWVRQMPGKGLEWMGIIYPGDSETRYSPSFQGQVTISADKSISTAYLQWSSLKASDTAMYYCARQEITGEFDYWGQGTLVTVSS VL: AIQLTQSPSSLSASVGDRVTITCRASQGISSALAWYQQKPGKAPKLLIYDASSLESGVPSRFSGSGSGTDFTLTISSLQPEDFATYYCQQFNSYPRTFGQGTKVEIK
Unit name: nM
Data value: 0.554
